System: OVCAR-5 ovarian
Test: NCI-60 one-dose screen, 48 h (100 = growth as untreated, 0 = no growth, -100 = all killed)
Settings: 10 µM unless noted
The panel holds about 83,000 compounds, 20% with a hit somewhere; the sample as a whole holds those more often.
Result Type: growth (%)
Give bare numbers, in %.

Example entries begin here.
Compound: Cc1ccc(/C=C/CC(=O)Nc2ccc(C(=O)Nc3ccc(F)cc3N)cc2)cn1
Value Unit: %
growth: 55.7
//
Compound: CN1CCN(c2nc(-c3cnc4ccccc4n3)cc3ccccc23)CC1
Value Unit: %
growth: 91.1

Batch request: growth for each of the following compounds.
1. COc1ccc(NC(=O)[C@H](C)NC(=O)OC(C)(C)C)cc1C(=O)Nc1cccc(-c2cc(=O)c3c(OC)c(OC)c(OC)cc3o2)c1
2. CN(c1ccc(Br)cc1)S(=O)(=O)c1ccc(-c2cnc(C3CC3)o2)cc1
3. Cc1ccc(C2CC(c3ccc(Nc4nc(NCCO)nc(Nc5ccc(Cl)cc5)n4)cc3)=Nc3c(N)nc(N)nc3N2)cc1 (centres undefined)
4. COc1ccc(C2CC(c3ccc(Nc4nc(NCCO)nc(Nc5ccc(Cl)cc5)n4)cc3)=Nc3c(N)nc(N)nc3N2)cc1 (centres undefined)
5. CN1C(=O)N(C)C2Nn3c(s/c(=C\c4ccccn4)c3=O)=NC21 (centres undefined)
6. Cc1ccc(Cc2cnc(NC(=O)/C(C#N)=C/c3ccc(-c4ccc(Cl)cc4)o3)s2)cc1

output:
[3.94, 46.7, -63.3, 121, 104, 100]

input: Answer briefly: growth recorded on OVCAR-5 ovarian for `O=C(NNc1nc2cc(F)ccc2n2cncc12)c1cnccn1`
output: 50

====

Hi there, I'd appreciate the recorded growth for every entry that follows.
Tested on: MDA-MB-435 melanoma
Experiment: NCI-60 one-dose screen, 48 h (100 = growth as untreated, 0 = no growth, -100 = all killed)
Conditions: 10 µM unless noted
About 83,000 compounds went through this panel and 20% of them were active in at least one assay; those are over-represented in the sample as a whole.
Give bare numbers, in %.

Example entries begin here.
Compound: O=C(CCCCCCN1CC(=O)N2[C@@H](c3cc(F)cc(F)c3)c3[nH]c4ccccc4c3C[C@H]2C1=O)NO
growth [%]: 47.9
--
Compound: O=S(=O)(NC1CC2CCC1C2)c1ccc2c(c1)C(=NO)c1cc(S(=O)(=O)NC3CC4CCC3C4)ccc1-2 (centres undefined)
growth [%]: 27.1
--
Compound: Cc1cc(O)c2c(c1)C(=O)C(c1c(C)cc3c(c1O)C(=O)C=CC3=O)=CC2=O
growth [%]: 96.5

Continue with the next compound.
input: Consider the compound `Cc1occc1-c1nc2s/c(=C\c3cn(-c4ccccc4)nc3-c3ccccc3)c(=O)n2n1` . State its measured growth.
output: 98.9

====

System: UACC-257 melanoma
Assay: NCI-60 one-dose screen, 48 h (100 = growth as untreated, 0 = no growth, -100 = all killed)
Settings: 10 µM
About 83,000 compounds went through this panel and 20% of them were active in at least one assay; those are over-represented in the sample as a whole.
Could you please mark 1.0 for values of growth below 90% and 0.0 for values at or above it?

Examples with answers:
Mol: CC(=O)Nc1ccc(C)c(Nc2cc(-c3ccc(-n4cccn4)cc3)[nH]n2)c1
System Tested: UACC-257 melanoma
Label Class: 1.0
//
Mol: COc1cc(C(=O)C[n+]2ccc3ccccc3c2)cc(OC)c1OC
System Tested: UACC-257 melanoma
Label Class: 0.0
//
Mol: O=C(/C=C1\C=CN(CCCCCCF)c2ccccc21)n1ccc2ccccc21
System Tested: UACC-257 melanoma
Label Class: 0.0
//
Mol: Cc1nn(-c2ccccc2)c2nc(CCl)[nH]c(=O)c12
System Tested: UACC-257 melanoma
Label Class: 0.0
//
Mol: COc1ccc2c(c1)oc1c3[nH]c4ccccc4c3c3c(c21)C(=O)N(O)C3=O
System Tested: UACC-257 melanoma
Label Class: 1.0

input: # strict comparison: is reported growth < 90%? input = `Cc1cc(-c2ccc3nc(N)sc3c2)nc2ccc3[nH]ncc3c12`
output: 1.0

input: # strict comparison: is reported growth < 90%? input = `O=C1Nc2cc(OC(F)(F)F)ccc2Oc2ccc(-c3ccnc(N4CCNCC4)c3)cc21`
output: 1.0

input: # strict comparison: is reported growth < 90%? input = `CCc1ccc(NC(=O)N[C@@H](Cc2cccc(F)c2)C(=O)N[C@@H]2C(=O)N3CCC[C@H]3C(=O)N3CCCC[C@H]3C(=O)N[C@@H](CO)C(=O)N3C[C@H](C)C[C@H]3C(=O)O[C@H]2C)c(F)c1`
output: 1.0

====

Test system: SNB-75 CNS
Test: NCI-60 one-dose screen, 48 h (100 = growth as untreated, 0 = no growth, -100 = all killed)
Conditions: 10 µM unless noted
Compounds without any hit were thinned out: in the full panel of roughly 83,000, 20% have a hit.
Decision: growth >= 90% yields Criterion met, all other cases yield Criterion not met.

input: Textbook exercise: given the entry `N#C/C(=C\c1ccc(N2CCCCC2)cc1)C(=O)Nc1sc2c(c1C#N)CCC2` , state whether its growth is greater than or equal to 90%.
output: Criterion not met

input: Textbook exercise: given the entry `O=C1c2c(c3c4cccnc4[nH]c3c3ccc4ccccc4c23)C(=O)N1CCN1CCOCC1` , state whether its growth is greater than or equal to 90%.
output: Criterion not met

input: Textbook exercise: given the entry `COc1cc(-c2nc(SCc3ccc(C)cc3)[nH]c(=O)c2C#N)ccc1OCc1ccccc1` , state whether its growth is greater than or equal to 90%.
output: Criterion met

====

System: OVCAR-5 ovarian
Assay: NCI-60 one-dose screen, 48 h (100 = growth as untreated, 0 = no growth, -100 = all killed)
Conditions: 10 µM unless noted
The panel holds about 83,000 compounds, 20% with a hit somewhere; the sample as a whole holds those more often. Calls of active or inactive are those of the source. How the source made its calls: active means growth percent below 10; inactive means the rest.
Hi there, I'd appreciate the recorded growth for every entry that follows.

Example entries begin here.
Compound: COC(=O)c1nc(-c2ccc(C)cc2)oc1S(=O)(=O)N1CCN(c2oc(-c3ccccc3)nc2C#N)CC1
Result Type: growth
Recorded Value: 108% (inactive)

Compound: O=C(/C=C/c1cccc(O)c1)c1ccc(O)cc1
Result Type: growth
Recorded Value: 91.4% (inactive)

Batch request: growth for each of the following compounds.
1. CCCCCCNC(=O)Oc1ccc(/C(=C(\C)c2ccc(OC)cc2)c2ccc(OCCN(C)C)cc2)cc1
2. NC(=O)N1N=C(c2cc3ccccc3oc2=O)CC1c1cn(-c2ccccc2)nc1-c1ccc(Cl)cc1 (configuration not stated)
3. COc1ccc(/C=N/Nc2nc(N/N=C/c3ccc(OC)cc3O)nc(N3CCOCC3)n2)c(O)c1
4. O=C1Nc2ccc(Br)cc2/C1=N\c1nnc(-c2ccc(Cl)cc2)o1

output:
86.8% (inactive)
64.9% (inactive)
68.1% (inactive)
98.7% (inactive)

====

Test system: SK-MEL-5 melanoma
Assay: NCI-60 one-dose screen, 48 h (100 = growth as untreated, 0 = no growth, -100 = all killed)
Conditions: 10 µM unless noted
About 83,000 compounds went through this panel and 20% of them were active in at least one assay; those are over-represented in the sample as a whole. The source made the active and inactive calls. How the source made its calls: active means growth percent below 10; inactive means the rest.
Result Type: growth

Compound: COc1ccc(-c2no[n+]([O-])c2Nc2ccccc2Br)cc1
growth: 93.5% (inactive)

Batch request: growth for each of the following compounds.
1. Cc1cn(-c2cc(NC(=O)c3cncc(C#Cc4cnc5ccc(O[C@@H]6CCOC6)nn45)c3)cc(C(F)(F)F)c2)cn1
2. CC1(C)CC[C@]2(C(=O)N3CCCN(CC#N)CC3)CC[C@]3(C)C(=CC[C@@H]4[C@@]5(C)CC[C@H](O)C(C)(C)[C@@H]5CC[C@]43C)[C@H]2C1
3. COc1ccccc1/C=C/C=N/NC1=NC2C(S1)N(C)C(=O)N2c1ccccc1 (stereo not given)
4. O=C(CSc1nnc(-c2ccc(Cl)cc2)n1-c1ccccc1)Nc1ccc(F)cc1
5. NS(=O)(=O)c1ccc(Nc2nc(N/N=C/c3ccc([N+](=O)[O-])cc3)nc(Nc3ccccc3)n2)cc1

output:
1. -98.4% (active)
2. 32.2% (inactive)
3. -12.6% (active)
4. 96.4% (inactive)
5. 32.3% (inactive)

Batch request: growth for each of the following compounds.
1. O=C(C[n+]1ccnc2ccccc21)c1ccc(O)c(O)c1
2. CCN(CC)CCN1C(=O)c2c(c3c4cc(Br)ccc4[nH]c3c3ccc4ccccc4c23)C1=O
3. CN1CCN(c2ccc(C(=O)Nc3cccc(-c4cn(-c5ccc(S(N)(=O)=O)cc5)nn4)c3)cc2C(F)(F)F)CC1
4. COc1ccc(C(=O)c2c(N)c(C#N)cn2-c2cccc(OC)c2)cc1
5. O=C(N/N=C\c1ccc(Cl)cc1)c1ccc2nc(-c3ccc(Br)cc3)[nH]c2c1
6. O=C(CCCCCCN1CC(=O)N2[C@@H](c3ccccc3)c3[nH]c4ccccc4c3C[C@H]2C1=O)NO

output:
["81.6% (inactive)", "-83.6% (active)", "90.6% (inactive)", "35.1% (inactive)", "22.2% (inactive)", "41.7% (inactive)"]

Batch request: growth for each of the following compounds.
1. COC1=C(c2ccccc2)C(=O)C(OC)=C(c2ccccc2)C1=O
2. Cc1ccc(-c2nnc3sc(C4=Cc5ccccc5OC=C4)nn23)cc1
3. COc1ccc(/C=C/C(=O)c2nnn(-c3ccc(C(=O)O)cc3)c2C)cc1OC
4. COc1ccc(NC2=C(Cl)C(=O)C(C)=C(C)C2=O)cc1
5. O=C(CCCCCCN1CC(=O)N2[C@@H](c3cccc(Cl)c3)c3[nH]c4ccccc4c3C[C@H]2C1=O)NO

output:
["103% (inactive)", "92.2% (inactive)", "103% (inactive)", "97.7% (inactive)", "33.6% (inactive)"]
